- System: JJN3R multiple myeloma cell line
- assay.details: Human tumor xenograft model in mice, JJN3R
- Type: in vivo
- test.context: Mus musculus, JJN-3R, po, 1 mg/kg, QDx7, read-out: % TGI
Assign class by inhibition in vivo at 1 mg/kg: not lower than 60% means class 1; lower than 60% means class 0.

Say whether [2H]C([2H])([2H])c1nnn(C)c1-c1cnc2c3ccc(C(C)(C)O)cc3n(C(c3ccc(F)cc3)C3CCOCC3)c2c1 (stereo not drawn) [Example 267] shows inhibition in vivo at 1 mg/kg of 60% or more.
class 0

Next molecule: [2H]C([2H])([2H])c1nnn(C)c1-c1cnc2c3ccc([C@@](C)(O)C4CC4)c(F)c3n([C@H](c3ccccc3)C3CCOCC3)c2c1 [Example 433]
class 0

What about this molecule? [2H]C([2H])([2H])c1nnn(C)c1-c1cnc2c3cc(F)c(C(C)(C)O)cc3n([C@H](c3ccccc3F)C3CCOCC3)c2c1 [Example 276]
class 0

Field entry: [2H]C([2H])([2H])c1nnn(C)c1-c1cnc2c3cc(F)c(C(C)(C)O)cc3n([C@H](c3ccccc3)C3CCOCC3)c2c1 [Example 279]
class 1

Please do the same for Cc1nnn(C)c1-c1cnc2c3ccc([C@](C)(O)C4CC4)c(F)c3n([C@H](c3ccccc3)C3CCOCC3)c2c1 (single isomer, unassigned) [Example 432] as well.
class 0

Also check [2H]C([2H])([2H])c1nnn(C)c1-c1cnc2c3ccc(S(C)(=O)=O)cc3n([C@H](c3ccccc3)C3CCOCC3)c2c1 [Example 263]
class 0

Now consider [2H]C([2H])([2H])c1nnn(C)c1-c1cnc2c3ccc(C(C)(C)O)c(F)c3n([C@H](c3ccccc3)C3CCOCC3)c2c1 [Example 278] .
class 1

Please answer likewise for Cc1nnn(C)c1-c1cnc2c3ccc(C(C)(O)C4CC4)c(F)c3n([C@H](c3ccccc3F)C3CCOCC3)c2c1 (single isomer, unassigned) [Example 436]
class 1

One more molecule: [2H]C([2H])([2H])c1nnn(C)c1-c1cnc2c3ccc([C@](C)(O)C4CC4)c(F)c3n([C@H](c3ccccc3)C3CCOCC3)c2c1 [Example 434]
class 1
